- Target system: T1, cell-surface CD3 epsilon on primary cynomolgus T cells (cynomolgus monkey, UniProt Q95LI5 22-198)
- T1 construct: whole, on cells; also called cynomolgus CD3e; Cyno T-cells
- T1 sequence (Q95LI5 22-198): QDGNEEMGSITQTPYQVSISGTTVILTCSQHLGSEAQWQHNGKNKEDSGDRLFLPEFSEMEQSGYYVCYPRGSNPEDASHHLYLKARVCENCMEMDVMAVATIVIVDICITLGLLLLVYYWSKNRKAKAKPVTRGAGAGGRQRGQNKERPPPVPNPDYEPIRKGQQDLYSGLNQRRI
- Protocol: flow cytometry on primary cynomolgus CD4+ T cells, anti-human IgG Alexa Fluor 647; MFI
Experimental readout: binding result

Binder	Reported
CD3B154 (antibody, IgG1, V domains shown, IgG1 constant region with L234A, L235A, F405L; human lambda light chain constant region) VH: EVQLLESGGGLVQPGGSLRLSCAASGFTFNTYAMNWVRQAPGKGLEWVARIRSKYNNYATYYADSVKGRFTISRDNSKNTLYLQMNSLRAEDTAVYYCVKHGNFGNSYVSWFAYWGQGTLVTVSS VL: QTVVTQEPSLTVSPGGTVTLTCRSSTGAVTTSNYANWVQQKPGQAPRGLIGGTNKRAPGTPARFSGSLLGGKAALTLSGVQPEDEAEYYCALWYSNLWVFGGGTKLTVL	binds
CD3B158 (antibody, IgG1, V domains shown, IgG1 constant region with L234A, L235A, F405L; human lambda light chain constant region) VH: EVQLVESGGGLVQPGGSLKLSCAASGFTFNTYAMNWVRQASGKGLEWVGRIRSKYNGYATYYAASVKGRFTISRDDSKNTAYLQMNSLKTEDTAVYYCTRHGNFGNSYVSWFAYWGQGTLVTVSS VL: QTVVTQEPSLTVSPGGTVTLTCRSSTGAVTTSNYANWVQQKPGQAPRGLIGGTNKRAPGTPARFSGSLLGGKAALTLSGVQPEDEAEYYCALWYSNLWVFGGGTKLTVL	binds
